B1: EEHEE_rd4_0469 (parent)
chain: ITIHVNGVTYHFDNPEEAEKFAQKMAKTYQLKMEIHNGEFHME

Variants of: B1
Experiment: folding stability dG (cDNA display proteolysis); higher = more stable
Settings: PBS, room temperature
Hi, to clarify the labels: Satisfied covers folding stability dG from 1 kcal/mol upward, Not satisfied covers anything below 1 kcal/mol.

   mutant_id  assigned_label
0       M33G   Not satisfied
1        I1L   Not satisfied
2       G38Y   Not satisfied
3       A26Q   Not satisfied
4        I3E   Not satisfied

Let's switch to this variant now.
(Q) Given E19S , state whether its folding stability dG is at least 1 kcal/mol.
(A) Satisfied
